Numbers sourced from patent US11147815B2.

Biological target: TRIM8 (Homo sapiens, UniProt Q9BZR9)
Construct: 20,000 THP-1 cells; endogenous in cells; host or cells: THP-1
Assay: Cell-based screen for TRIM8 inhibition: CXCL9, CXCL10 and CXCL11 accumulation in IFN-γ-stimulated THP-1 cells
Details: THP-1 cells, 10 µM compound 4 hours, then 200 U human IFN-γ, 12 hours, flow cytometer; degree of change from control; high background in read-out
Procedure: A library of small molecule compounds comprising an E2-RING domain or a RING-RING domain was screen for TRIM8 inhibition in a cell-based assay. […] The effect of the stimulation as measured by changes in accumulation levels of the cytokines CXCL9, CXCL10 and CXCL11 in extracellular fluid was determined by flow cytometer after 12 hours and compared to control (IFN-γ stimulation with no compound). […]
PARAMETER: Normalized Average of I-TAC/CXCL11

1. COc1ccc(Sc2ccc(=O)n(-c3ccc(C(=O)NCCCc4ccccc4)cc3)n2)cc1 :: 0.744
2. CCc1cccc2c(C(CC(=O)N3CCN(c4ccc([N+](=O)[O-])cc4)CC3)c3cccc4c3OCO4)c[nH]c12 (stereo not drawn) :: 0.806
3. COc1ccc(CN2C(=O)NC(=O)/C(=C\c3cccc4ccccc34)C2=O)cc1 :: 4.410
4. O=C(NCCCc1ccccc1)c1n[nH]c2c1CN(C(=O)c1cc(F)ccc1F)CC2 :: 0.426
5. COc1ccc(N2CCN(C(=O)c3cc4ccc5cccnc5c4[nH]3)CC2)cc1 :: 0.617
6. COc1ccc(-c2n[nH]c3c2C(c2ccccc2)C2=C(CC(C)(C)CC2=O)N3)cc1 (stereo not drawn) :: <LLOD

====

target: TRIM8 (Homo sapiens); construct: 20,000 THP-1 cells; endogenous in cells; host or cells: THP-1; assay: Cell-based screen for TRIM8 inhibition: CXCL9, CXCL10 and CXCL11 accumulation in IFN-γ-stimulated THP-1 cells; settings: THP-1 cells, 10 µM compound 4 hours, then 200 U human IFN-γ, 12 hours, flow cytometer; degree of change from control (<1 inhibition, >1 enhancement); triplicate
Entries and their Normalized Average of IP-10/CXCL10 values follow.
PARAMETER: Normalized Average of IP-10/CXCL10

1) COc1ccc(-c2n[nH]c3c2C(c2ccccc2)C2=C(CC(C)(C)CC2=O)N3)cc1 (stereo not drawn) :: 0.352
2) O=C(NCCCc1ccccc1)c1n[nH]c2c1CN(C(=O)c1cc(F)ccc1F)CC2 :: 0.468
3) COc1ccc(Sc2ccc(=O)n(-c3ccc(C(=O)NCCCc4ccccc4)cc3)n2)cc1 :: 0.127
4) COc1ccc(CN2C(=O)NC(=O)/C(=C\c3cccc4ccccc34)C2=O)cc1 :: 3.640
5) COc1ccc(N2CCN(C(=O)c3cc4ccc5cccnc5c4[nH]3)CC2)cc1 :: 0.334
6) CCc1cccc2c(C(CC(=O)N3CCN(c4ccc([N+](=O)[O-])cc4)CC3)c3cccc4c3OCO4)c[nH]c12 (stereo not drawn) :: 0.794

====

Biological target: TRIM8 (Homo sapiens, UniProt Q9BZR9)
Construct: 20,000 THP-1 cells; endogenous in cells; host or cells: THP-1
Sequence (Q9BZR9 1-551): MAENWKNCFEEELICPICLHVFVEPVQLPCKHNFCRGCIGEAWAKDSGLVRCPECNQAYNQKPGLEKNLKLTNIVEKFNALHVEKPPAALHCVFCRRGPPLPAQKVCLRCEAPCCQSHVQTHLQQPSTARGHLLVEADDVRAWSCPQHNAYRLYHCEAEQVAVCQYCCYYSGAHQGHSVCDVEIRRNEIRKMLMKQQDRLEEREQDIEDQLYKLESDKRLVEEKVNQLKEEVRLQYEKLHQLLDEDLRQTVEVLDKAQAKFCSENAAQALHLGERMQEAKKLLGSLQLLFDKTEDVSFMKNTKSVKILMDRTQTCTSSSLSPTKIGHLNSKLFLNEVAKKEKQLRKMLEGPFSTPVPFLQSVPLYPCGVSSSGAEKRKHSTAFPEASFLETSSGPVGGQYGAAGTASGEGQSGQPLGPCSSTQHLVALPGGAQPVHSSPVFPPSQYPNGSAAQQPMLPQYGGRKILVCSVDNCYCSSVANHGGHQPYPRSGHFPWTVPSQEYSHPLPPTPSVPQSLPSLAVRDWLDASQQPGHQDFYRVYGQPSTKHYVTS
Assay: Cell-based screen for TRIM8 inhibition: CXCL9, CXCL10 and CXCL11 accumulation in IFN-γ-stimulated THP-1 cells
Details: summary in words, Example 4
PARAMETER: TRIM8 inhibitor or enhancer activity found on testing

1. CCc1cccc2c(C(CC(=O)N3CCN(c4ccc([N+](=O)[O-])cc4)CC3)c3cccc4c3OCO4)c[nH]c12 (stereo not drawn) :: potent TRIM8 enhancer
2. COc1ccc(CN2C(=O)NC(=O)/C(=C\c3cccc4ccccc34)C2=O)cc1 :: potent TRIM8 enhancer
